experiment: Half life period in human hepatic S9 fraction was determined; format: ADME, subcellular; details: liver S9 fraction
parameter: half-life

Problem: Need half-life of O=C(O)Cc1ccccc1OCCC1Oc2ccccc2N(Cc2ccc(Cl)cc2)C1=O (stereo unspecified) , thanks.
Solution: > 50 min

* * *

test system: Rattus norvegicus; assay: Area under curve (AUC0-24 h) after administration (30 mg/kg) in rat; assay type: ADME, organism-based; parameters: dose 30 mg/kg, time < 24 hr; conditions: in vivo
parameter: AUC (µM·h)
Output spec: scalar in µM·h, unitless text.

Problem: Fill in the blank: the reported AUC of O=C(O)Cc1ccccc1OCCC1Oc2ccccc2N(Cc2ccc(Cl)cc2)C1=O (stereo unspecified) is ____.
Solution: 308

* * *

biological target: Peroxisome proliferator-activated receptor gamma (Homo sapiens); experiment: Functional potency was determined in pooled human preadipocytes by measurement of PPARg aP2 gene induction; assay type: cell-based
Exercise: state measured log10 Activity for each of the compounds provided.
Recorded Activity (log10, µM)

Problem: GET /values?readout=log10 Activity&item= O=C(O)Cc1ccccc1OCCC1Oc2ccccc2N(Cc2cccc(Cl)c2)C1=O (stereo not given)
Solution: 0.38

Problem: Given O=C(O)Cc1ccccc1OCCC1Oc2ccccc2N(Cc2ccc(Cl)c(Cl)c2)C1=O (stereo not given) , state its recorded log10 Activity.
Solution: 0.41

Problem: Quick check: log10 Activity of CN(CCOc1ccc(CC2SC(=O)NC2=O)cc1)c1ccccn1 (stereo not given) ?
Solution: -0.92

Problem: GET /values?readout=log10 Activity&item= O=C(O)Cc1ccccc1OCCC1Oc2ccccc2N(Cc2ccc(Cl)cc2)C1=O (stereo not given)
Solution: 0.32

Problem: Entry under review: O=C(O)Cc1ccccc1OCCC1Oc2ccccc2N(Cc2ccc(C(F)(F)F)cc2)C1=O (stereo not given) . Reported log10 Activity?
Solution: -0.29

Problem: What value of log10 Activity has been reported for the following compound? O=C(O)Cc1ccccc1OCCC1Oc2ccccc2N(Cc2ccc3c(c2)OCO3)C1=O (stereo not given)
Solution: 0.64

Problem: # lookup: log10 Activity of Cc1ccc2c(c1)OC(CCOc1ccccc1CC(=O)O)C(=O)N2Cc1ccc(Cl)cc1 (stereo not given)
Solution: 0.62

Problem: Consider the compound O=C(O)Cc1ccccc1OCCC1Oc2ccccc2N(c2ccc(Cl)c(Cl)c2)C1=O (stereo not given) and give its measured log10 Activity.
Solution: 0.77

Problem: Recorded log10 Activity for O=C(O)Cc1ccccc1OCCC1Oc2ccccc2N(Cc2ccc(F)cc2)C1=O (stereo not given) , please?
Solution: 0.51

Problem: Which log10 Activity reading was recorded for the compound Cc1ccc(CN2C(=O)C(CCOc3ccccc3CC(=O)O)Oc3ccccc32)cc1 (stereo not given) ?
Solution: 0.70

Problem: What value of log10 Activity has been reported for the following compound? O=C(O)Cc1ccccc1OCCC1Oc2ccccc2N(Cc2ccc(F)c(F)c2)C1=O (stereo not given)
Solution: 0.11

Problem: GET /values?readout=log10 Activity&item= COc1ccc2c(c1)N(Cc1ccc(Cl)cc1)C(=O)C(CCOc1ccccc1CC(=O)O)O2 (stereo not given)
Solution: 0.78

Problem: Requested read-out: log10 Activity. Entry: O=C(O)Cc1ccccc1OCCC1Oc2ccccc2N(Cc2ccccc2)C1=O (stereo not given)
Solution: 0.66

* * *

assay: Half life period in human liver microsome was determined; assay type: ADME; conditions: liver microsomes
parameter: half-life

Problem: Recorded half-life of O=C(O)Cc1ccccc1OCCC1Oc2ccccc2N(Cc2ccc(Cl)cc2)C1=O (stereo unspecified) , please.
Solution: > 50 min
